Assay Protocol: Plasma pharmacokinetics in biliary cancer patients (LC-MS/MS, non-compartmental)
Format: in vivo, human
Experimental Context: human, plasma, po, 200 mg, subject 1002; first dose 200 mg oral; read-out: Half-life (converted)
Measured Endpoint: half-life (h)
Numbers only, in h.

Please look up its half-life: `NC1(c2ccc(-c3nc4ccn5c(=O)[nH]nc5c4cc3-c3ccccc3)cc2)CCC1`
80.4

---

Assay Protocol: Plasma pharmacokinetics in biliary cancer patients (LC-MS/MS, non-compartmental)
Assay type: in vivo, human
Experimental Context: human, plasma, po, 200 mg, subject 2008; first dose 200 mg oral; read-out: Vz/F
Measured Endpoint: Vd/F
For clarity, give the value followed by its unit.

Please look up its Vd/F: `NC1(c2ccc(-c3nc4ccn5c(=O)[nH]nc5c4cc3-c3ccccc3)cc2)CCC1`
6560 L

Data credit: paper PMC4894406
